Cited source for all entries: the supplement of paper PMC8728848

- TEST SYSTEM: Fuc(a1-2)Gal(b1-3)[Fuc(a1-4)]GlcNAc(b1-2)Man(a1-3)[Fuc(a1-2)Gal(b1-3)[Fuc(a1-4)]GlcNAc(b1-2)Man(a1-3)]Man(b1-4)GlcNAc(b1-4)GlcNAc
- TEST PROTOCOL: glycan array binding signal (z-score within array); higher = stronger binding
- EXPERIMENTAL PARAMETERS: glycan notation: IUPAC condensed, linker removed
The full list was thinned out, with the strongest signals kept by preference.
Collected glycan array binding signal (z-score) values appear next to each entry.

[[record]]
binder = "GST Gap3 (Streptococcus parasanguinis) (protein) MTKQLISEIYWNEIRKGENYLYGSQIKFQEDLVNFYNPQLASGKPIVTFKSRTNYQGDRHSPDLPILIQGNRYLLEYQIDAVPANSFFLQLDFFNRQAEQIESIVLRNSGESFIFPKDTFTYTLTLMSAGCQSVTYQKFMIYDINDEEKKNHIVENRYLRELLPKDLDLVKNLIEYI"
measured_value = 2.3

[[record]]
binder = "SSP1 (Sclerotinia sclerotiorum), XP_001584968 (protein) MGSSHHHHHHSSGLVPRGSHMSLLTTELACTSAPDQVLHLFFQDGQNILEARSPDGGNVWTTQDTIIAKDGDYNGSSMTCYYVDKDANFDNQPSIHLLYMNKDKQLTEKVKRMKGDNPIWEDAKVPDEVRKGPEQYSKLTSGSFNQGTGWNPNGSQWAYFSASKDGKMGIVEIRRTPKDPWHTETILEEKWGDELPGTALACVIGNGKIRVFLQHHDYSIILYENQNNTWHDRGTFIPKDKVQATTPLACTMTKDGSVHLFYVSKSNKIIHCTDGKKEEELINFFPGSKLGATSVENKITLFFRNLNPVNEVGTLENENGSWKHGTTVIPA"
measured_value = 0.937


# lookup: glycan array binding signal (z-score) of Epa11 (Candida glabrata) (protein) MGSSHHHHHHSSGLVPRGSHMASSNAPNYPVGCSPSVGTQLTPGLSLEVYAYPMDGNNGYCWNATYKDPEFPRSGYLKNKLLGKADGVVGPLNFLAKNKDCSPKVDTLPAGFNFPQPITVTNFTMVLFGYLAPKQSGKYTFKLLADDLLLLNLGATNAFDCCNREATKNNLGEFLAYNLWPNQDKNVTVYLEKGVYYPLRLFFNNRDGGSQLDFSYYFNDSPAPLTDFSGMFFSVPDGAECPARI
-0.183
